System: Trypanosoma cruzi
Assay: Antitrypanosomal activity against Trypanosoma cruzi Tulahuen 2
Format: functional, organism-based
reported_metric: pIC50
Numbers only, as −log10 of the molar value.

query_smiles	numeric_readout
O=C(N/N=C/c1ccccc1O)c1nc2ccccc2nc1-c1ccccc1	4.80

Let us examine a further case.
Exercise: Item Cc1nc2ccccc2nc1C(=O)N/N=C/c1ccccc1O has what recorded pIC50?
Key: 4.70

----------
Tested on: Trypanosoma cruzi
Assay: Antitrypanosomal activity against Trypanosoma cruzi Tulahuen 2 at 25 uM relative to nifurtimox
Assay type: functional
Settings: read-out: GI
Class (by inhibition of growth at 25 µM) -- low bin (below 20%), mid bin (20% to below 50%), high bin (50% or more)

query_smiles	classification
O=C(N/N=C/c1ccc(Cl)cc1)c1nc2ccccc2nc1-c1ccccc1	high bin
O=C(N/N=C/c1ccc([N+](=O)[O-])cc1)c1nc2ccccc2nc1-c1ccccc1	low bin

Exercise: Class? Entry: O=C(N/N=C/c1ccccn1)c1nc2ccccc2nc1-c1ccccc1
Key: low bin

----------
System: J774
Assay: Cytotoxicity against mouse J774 cells at 400 uM after 48 hrs by MTT assay
Type: cell-based
Conditions: j774, 48 h
reported_metric: Activity (%)
Answers are plain numbers, in %.

Consider the worked cases shown below.
compound	numeric_readout
CC(=O)N1CCN(c2ccc(OCC3COC(Cn4ccnc4)(c4ccc(Cl)cc4Cl)O3)cc2)CC1 (centres undefined)	100
CN(C/C=C/C#CC(C)(C)C)Cc1cccc2ccccc12	100
Cc1nc2ccccc2nc1C(=O)N/N=C/c1ccccc1O	12

Let us examine a further case.
Exercise: API: value(readout= Activity, system= J774, query= O=C(N/N=C/c1ccccc1O)c1nc2ccccc2nc1-c1ccccc1 )
Key: 14

----------
Can you tell me selectivity ratio for the items I'm about to list?
Test: Selectivity index, ratio of IC50 for mouse J774 cells to IC50 for Trypanosoma cruzi Tulahuen 2
Assay type: toxicity, cell-based
Details: J774 cells (versus Trypanosoma cruzi Tulahuen 2), read-out: Ratio IC50

Consider the worked cases shown below.
compound	selectivity ratio
CC(=O)N1CCN(c2ccc(OCC3COC(Cn4ccnc4)(c4ccc(Cl)cc4Cl)O3)cc2)CC1 (centres undefined)	< 5
O=C(N/N=C/c1ccccc1O)c1nc2ccccc2nc1-c1ccccc1	> 25.2

Dear reader, for each entry below, please note its selectivity ratio.
1. CN(C/C=C/C#CC(C)(C)C)Cc1cccc2ccccc12
2. Cc1nc2ccccc2nc1C(=O)N/N=C/c1ccccc1O

Key:
1: 5.1; 2: > 20

----------
Can you tell me inhibition of growth at 25 µM for the items I'm about to list?
Test system: Trypanosoma cruzi
Assay: Antitrypanosomal activity against Trypanosoma cruzi Tulahuen 2 at 25 uM relative to nifurtimox
Format: functional
Conditions: read-out: GI
Please state the number and follow it with the unit.

Consider the worked cases shown below.
query_smiles	tested_target	result
CC(C)c1ccc(/C=N/NC(=O)c2nc3ccccc3nc2-c2ccccc2)cc1	Trypanosoma cruzi	36%
O=C(N/N=C/c1ccco1)c1nc2ccccc2nc1-c1ccccc1	Trypanosoma cruzi	0%

Dear reader, for each entry below, please note its inhibition of growth at 25 µM.
1. O=C(N/N=C/c1ccncc1)c1nc2ccccc2nc1-c1ccccc1
2. CN(C)c1ccc(/C=N/NC(=O)c2nc3ccccc3nc2-c2ccccc2)cc1
3. Cc1nc2ccccc2nc1C(=O)N/N=C/c1ccccc1O
4. O=C(N/N=C/c1ccccc1Cl)c1nc2ccccc2nc1-c1ccccc1

Key:
1: 0%; 2: 29%; 3: 81%; 4: 35%
